- STUDY TARGET: PRMT5 (Homo sapiens)
- Construct: purchased Viva (custom protein)
- Sequence (O14744 whole entry): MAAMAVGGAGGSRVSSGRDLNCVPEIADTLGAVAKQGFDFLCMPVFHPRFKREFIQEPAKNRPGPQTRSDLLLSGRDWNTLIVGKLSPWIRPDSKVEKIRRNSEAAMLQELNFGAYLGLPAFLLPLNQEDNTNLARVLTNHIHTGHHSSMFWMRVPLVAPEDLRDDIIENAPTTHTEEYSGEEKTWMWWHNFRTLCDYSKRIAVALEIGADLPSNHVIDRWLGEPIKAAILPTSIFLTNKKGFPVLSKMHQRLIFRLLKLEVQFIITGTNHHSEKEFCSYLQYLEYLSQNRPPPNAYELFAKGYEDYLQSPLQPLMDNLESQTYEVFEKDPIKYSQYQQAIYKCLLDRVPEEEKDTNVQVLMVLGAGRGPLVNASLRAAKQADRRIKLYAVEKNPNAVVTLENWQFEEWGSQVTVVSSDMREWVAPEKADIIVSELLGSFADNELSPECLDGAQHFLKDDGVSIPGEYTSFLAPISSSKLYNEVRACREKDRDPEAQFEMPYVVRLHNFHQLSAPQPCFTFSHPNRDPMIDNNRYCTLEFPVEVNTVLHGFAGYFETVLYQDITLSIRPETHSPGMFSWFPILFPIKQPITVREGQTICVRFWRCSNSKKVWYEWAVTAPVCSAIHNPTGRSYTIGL
- Sequence (Q9BQA1 whole entry partner): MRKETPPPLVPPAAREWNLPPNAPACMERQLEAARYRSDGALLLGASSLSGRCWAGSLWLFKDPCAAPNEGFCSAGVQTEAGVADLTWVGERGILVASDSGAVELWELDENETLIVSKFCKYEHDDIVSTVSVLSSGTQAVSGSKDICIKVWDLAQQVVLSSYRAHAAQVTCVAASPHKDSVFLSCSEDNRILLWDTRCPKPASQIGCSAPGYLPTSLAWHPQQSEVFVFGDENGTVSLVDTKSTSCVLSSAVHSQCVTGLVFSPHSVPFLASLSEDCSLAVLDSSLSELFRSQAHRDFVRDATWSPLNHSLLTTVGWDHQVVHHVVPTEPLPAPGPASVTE
- PROTOCOL SUMMARY: PRMT5 IC50 assay with no cofactor
- Format: biochemical
- CONDITION CONTEXT: read-out: No Co-factor IC50
pIC50: −log10 of the molar value.
MEASURED PROPERTY: pIC50

[
  {
    "MOLECULE": "COCCN(C)c1cc(NC2CCN(C(C)=O)CC2)cc(C(=O)NC[C@@H](O)CN2CCc3cc(OCc4ocnc4C)ccc3C2)c1 (single isomer, unassigned) [Compound 648]",
    "STUDY TARGET": "PRMT5 (Homo sapiens)",
    "pIC50": "≤ 5.30"
  }
]

Please look up its pIC50: O=C(NC[C@H](O)CN1CCc2c(ccc(OCc3cnco3)c2Cl)C1)c1cc(NC2COC2)nc(N2CCOCC2)n1 [Compound 298]
≤ 5.30

Moving on to O=C(NC[C@H](O)CN1CCc2cc(OCc3cnco3)cc(F)c2C1)c1ccnc(NC2CCC2)c1 [Compound 362]
≤ 5.30

----------
- STUDY TARGET: PRMT5 (Homo sapiens)
- Construct: purchased Viva (custom protein)
- PROTOCOL SUMMARY: PRMT5 IC50 assay in the presence of SAM as cofactor
- Type: biochemical
pIC50: −log10 of the molar value.
Catalogue of pIC50 readings, one per entry.

Some solved entries appear below for comparison.
[
  {
    "COMPOUND": "Cc1ncoc1COc1ccc2c(c1)CCN(C[C@@H](O)CNC(=O)c1cc(NC3CCN(C)C(=O)C3)ncn1)C2 (stereo partly shown)",
    "pIC50": "6.30 to 7.30"
  },
  {
    "COMPOUND": "Cc1c(OCc2cnco2)ccc2c1CCN(C[C@@H](O)CNC(=O)c1ccnc(NC3CN(C(=O)C4CCC4)C3)c1)C2",
    "pIC50": "6.30 to 7.30"
  },
  {
    "COMPOUND": "Cc1ncoc1COc1ccc2c(c1Br)CCN(C[C@@H](O)CNC(=O)c1cccc(NC3COC3)c1)C2",
    "pIC50": "5.30 to 6.30"
  }
]

// below: pIC50 requested for another compound
Please look up its pIC50: Cc1ncoc1COc1ccc2c(c1C)CCN(C[C@@H](O)CNC(=O)c1cc(NC3CCC3)nc(N3CCN(C)CC3)c1)C2
6.30 to 7.30

----------
Catalogue of pIC50 readings, one per entry.
- STUDY TARGET: PRMT5 (Homo sapiens)
- Construct: purchased Viva (custom protein)
- PROTOCOL SUMMARY: PRMT5 IC50 assay with no cofactor
- Type: biochemical
pIC50: −log10 of the molar value.

Some solved entries appear below for comparison.
[
  {
    "COMPOUND": "CC(=O)N1CC(Nc2cc(C(=O)NC[C@H](O)CN3CCc4cc(OCc5cnco5)ccc4C3)ncn2)C1",
    "pIC50": "≤ 5.30"
  },
  {
    "COMPOUND": "Cc1ncoc1COc1ccc2c(c1)CCN(C[C@@H](O)CNC(=O)c1cc(NC3CCC3)nc(N3CCN(C)CC3)c1)C2",
    "pIC50": "5.30 to 6.30"
  },
  {
    "COMPOUND": "Cc1c(OCc2cnco2)ccc2c1CCN(C[C@@H](O)CNC(=O)c1cncc(NC3CCOC3)c1)C2 (stereo partly shown)",
    "pIC50": "≤ 5.30"
  },
  {
    "COMPOUND": "CC(C)C(=O)N1CC(Nc2cc(C(=O)NC[C@H](O)CN3CCc4cc(OCc5cnco5)ccc4C3)ccn2)C1",
    "pIC50": "≤ 5.30"
  },
  {
    "COMPOUND": "Cc1ncoc1COc1cc2c(cc1F)CN(C[C@@H](O)CNC(=O)c1ccnc(Nc3cccnc3)c1)CC2",
    "pIC50": "≤ 5.30"
  },
  {
    "COMPOUND": "Cc1ncoc1COc1ccc2c(c1)CCN(C[C@@H](O)CNC(=O)c1cc(NC3CCN(C)C(=O)C3)ncn1)C2 (stereo partly shown)",
    "pIC50": "≤ 5.30"
  }
]

Please look up its pIC50: Cc1c(OCc2cnco2)ccc2c1CCN(C[C@@H](O)CNC(=O)c1cc(NC3CCN(C(=O)C4CCC4)CC3)ncn1)C2
5.30 to 6.30
